# Lookup of reported IC50 keyed by entry
Test system: SAS
protocolDetails: Cytotoxicity against human SAS cells assessed as growth inhibition
Type: functional, cell-based
Output spec: scalar in µM, unitless text.

COc1cc(C#C/C=C\C#Cc2ccccc2SC)cc(OC)c1OC ... 12.8
COc1cc(C#C/C=C\C#Cc2ccccc2[N+](=O)[O-])cc(OC)c1OC ... 1.37
COc1cc(C#C/C=C\C#Cc2ccccc2C#N)cc(OC)c1OC ... 10.6
Nc1ccccc1C#C/C=C\C#Cc1ccccc1C(F)(F)F ... 5.83
COc1cc(C#C/C=C\C#Cc2ccccc2N)cc(OC)c1OC ... 4.53

Query string: So what does the record say about IC50 for COc1ccccc1C#C/C=C\C#Cc1cc(OC)c(OC)c(OC)c1 ?
Result string: 9.88

Hey, just so you know, these numbers are from ChEMBL document CHEMBL2331259.
